Each recorded value in this set is attributed to paper PMC10442743.

# Test system: ctDNA
# experiment notes: Circular dichroism / induced circular dichroism with calf thymus DNA
# experimental parameters: DNA, 24 h, 37 °C
readout type: CD band 246 nm (helicity), wavelength shift

[[record]]
molecule = "CC[N+](C)(CC)CCC[n+]1c(-c2ccccc2)c2cc(N)ccc2c2ccc(N)cc21.[I-].[I-] [PI, propidium iodide]"
readout_value = "Unchanged"

[[record]]
molecule = "N=C(N)c1ccc(-c2cc3ccc(C(=N)N)cc3[nH]2)cc1"
readout_value = "Unchanged"

[[record]]
molecule = "CN(C)c1ccc(C(=C2C=CC(=[N+](C)C)C=C2)c2ccc([N+](C)(C)C)cc2)cc1.[Cl-].[Cl-]"
readout_value = "Unchanged"

